- Study target: T1, 4H982-AA
- T1 chain: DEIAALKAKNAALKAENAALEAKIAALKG
- Assay protocol: two-hybrid library CCmax;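 further: natural log of median RNA to DNA barcode read ratio; higher means stronger binding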
- Experimental setup: mean of both orientations
Recorded metric: interaction score

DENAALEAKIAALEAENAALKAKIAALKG [4H1310-AA]    -1.4
DENAALEAKIAALKAEIAALEAKNAALEG [4H1351-AA]    -0.516
DKIAALKAKNAALKAKIAALKAKNAALKG [4H3056-AA]    -1.65

[P] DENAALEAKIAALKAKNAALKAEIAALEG [4H1401-AA]
[Q] DKIAALKAEIAALEAKNAALKAENAALKG [4H2620-AA]
[R] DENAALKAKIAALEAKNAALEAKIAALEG [4H1845-AA]
[S] DKIAALEAENAALEAENAALEAKIAALKG [4H2198-AA]
[T] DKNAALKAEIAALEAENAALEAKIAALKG [4H3606-AA]
IN: Ranking field: interaction score; order: falling. # the answer lists labels in the order requested
OUT: S, T, P, Q, R

[I] DKIAALKAKIAALKAENAALKAENAALEG [4H2907-AA]
[II] DENAALEAKNAALKAKIAALKAEIAALEG [4H1513-AA]
IN: Consider entries I and II . Which has the numerically lower interaction score? Indicate which entry you chose by stating its label.
OUT: I
(I: -1.58, II: -1)
